Source listed as ChEMBL document CHEMBL1201862.

# Test system: 786-0
# Assay Info: NCI tumour cell line growth inhibition, 48 h
Calls of active or inactive are those of the source. Rule as the data show it: active = GI50 up to about 1.1 µM and inactive = higher.
Listed here are compounds together with their documented GI50.
Measured Endpoint: GI50

>  <Compound>
CN(C)CCNc1c([N+](=O)[O-])sc2ccc(Cl)cc12

>  <Measured Endpoint>
GI50

>  <Value Observed>
12.2 µM (inactive)

$$$$
>  <Compound>
Cc1nc2ccccc2nc1NS(=O)(=O)c1ccc(N)cc1

>  <Measured Endpoint>
GI50

>  <Value Observed>
> 100 µM (inactive)

$$$$
>  <Compound>
OC(Cn1cncn1)(Cn1cncn1)c1ccc(Cl)cc1Cl

>  <Measured Endpoint>
GI50

>  <Value Observed>
> 100 µM (inactive)

$$$$
>  <Compound>
Cc1ccc(S(=O)(=O)NC(=O)NC23CC4CC(CC(F)(C4)C2)C3)cc1

>  <Measured Endpoint>
GI50

>  <Value Observed>
> 100 µM (inactive)

$$$$
>  <Compound>
O=C1CCC2(c3ccc(Cl)cc3)Nc3ccccc3N12 (stereo not given)

>  <Measured Endpoint>
GI50

>  <Value Observed>
> 100 µM (inactive)

$$$$
>  <Compound>
COc1cccc(NC(=O)CC(=O)N2N=C(C)C(/N=N/c3ccc(C(=O)O)cc3)C2=O)c1 (stereo not given)

>  <Measured Endpoint>
GI50

>  <Value Observed>
> 100 µM (inactive)

$$$$
>  <Compound>
COCCN1C(=O)C2c3[nH]c4ccccc4c3C3CCC(C(C)(C)C)CC3C2C1=O (stereo not given)

>  <Measured Endpoint>
GI50

>  <Value Observed>
17.2 µM (inactive)

$$$$
>  <Compound>
Clc1nncc2sc(-c3ccccc3)nc12

>  <Measured Endpoint>
GI50

>  <Value Observed>
85.9 µM (inactive)

$$$$
>  <Compound>
O=C(/C=C1\N=C(c2ccccc2)N(c2nc3c(Cl)cc(Cl)cc3s2)C1=O)/C=C/c1ccccc1

>  <Measured Endpoint>
GI50

>  <Value Observed>
> 100 µM (inactive)

$$$$
>  <Compound>
Cc1cc(S(=O)(=O)[N-]C(=C(C#N)C#N)[n+]2ccc(N(C)C)cc2)c(SCC(=O)O)cc1Cl

>  <Measured Endpoint>
GI50

>  <Value Observed>
> 100 µM (inactive)

$$$$
